Catalogue of residual activity values
testedSystem: Solute carrier organic anion transporter family member 1B3 (Homo sapiens, UniProt Q9NPD5)
Sequence (Q9NPD5 whole entry): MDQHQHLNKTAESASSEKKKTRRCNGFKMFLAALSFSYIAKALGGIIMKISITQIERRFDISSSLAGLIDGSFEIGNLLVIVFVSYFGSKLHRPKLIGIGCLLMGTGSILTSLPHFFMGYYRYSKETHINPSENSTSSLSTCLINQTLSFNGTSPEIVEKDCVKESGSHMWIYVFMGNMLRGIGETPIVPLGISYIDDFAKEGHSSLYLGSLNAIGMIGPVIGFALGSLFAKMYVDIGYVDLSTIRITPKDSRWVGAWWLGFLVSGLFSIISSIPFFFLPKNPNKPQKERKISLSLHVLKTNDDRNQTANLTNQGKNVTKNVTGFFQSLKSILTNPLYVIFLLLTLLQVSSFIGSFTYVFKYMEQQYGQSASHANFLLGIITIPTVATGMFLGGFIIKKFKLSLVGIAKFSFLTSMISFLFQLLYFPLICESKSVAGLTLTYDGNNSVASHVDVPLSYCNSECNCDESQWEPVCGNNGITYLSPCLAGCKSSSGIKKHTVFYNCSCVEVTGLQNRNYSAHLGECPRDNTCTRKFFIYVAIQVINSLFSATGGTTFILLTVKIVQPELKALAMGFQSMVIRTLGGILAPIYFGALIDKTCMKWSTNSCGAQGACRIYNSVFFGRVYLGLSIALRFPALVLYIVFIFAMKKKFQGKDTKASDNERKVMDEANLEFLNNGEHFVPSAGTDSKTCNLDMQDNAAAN
measurementContext: chinese hamster, cho, 10 µM
measurementLabel: residual activity (%)

> print(dat)
                                  cpdsmiles   measurementlabel  unittag  reportedresult
1  CC1=CC(=O)C2=C(C)CC[C@@H]3[C@H](OC(=O)[C@H]3C)[C@@H]12  residual activity        %           118.5
2                               OCc1ccccc1O  residual activity        %           117.7
3  O=c1c(O)cccc2c([C@H]3Oc4cc(O)cc(O)c4C[C@H]3O)cc(O)c(O)c12  residual activity        %           85.59
4  COc1cc(-c2coc3cc(OCc4ccccc4)c(OC)c(O)c3c2=O)cc(O)c1OC  residual activity        %           36.98

====

testedSystem: Solute carrier organic anion transporter family member 1B1 (Homo sapiens, UniProt Q9Y6L6)
Sequence (Q9Y6L6 whole entry): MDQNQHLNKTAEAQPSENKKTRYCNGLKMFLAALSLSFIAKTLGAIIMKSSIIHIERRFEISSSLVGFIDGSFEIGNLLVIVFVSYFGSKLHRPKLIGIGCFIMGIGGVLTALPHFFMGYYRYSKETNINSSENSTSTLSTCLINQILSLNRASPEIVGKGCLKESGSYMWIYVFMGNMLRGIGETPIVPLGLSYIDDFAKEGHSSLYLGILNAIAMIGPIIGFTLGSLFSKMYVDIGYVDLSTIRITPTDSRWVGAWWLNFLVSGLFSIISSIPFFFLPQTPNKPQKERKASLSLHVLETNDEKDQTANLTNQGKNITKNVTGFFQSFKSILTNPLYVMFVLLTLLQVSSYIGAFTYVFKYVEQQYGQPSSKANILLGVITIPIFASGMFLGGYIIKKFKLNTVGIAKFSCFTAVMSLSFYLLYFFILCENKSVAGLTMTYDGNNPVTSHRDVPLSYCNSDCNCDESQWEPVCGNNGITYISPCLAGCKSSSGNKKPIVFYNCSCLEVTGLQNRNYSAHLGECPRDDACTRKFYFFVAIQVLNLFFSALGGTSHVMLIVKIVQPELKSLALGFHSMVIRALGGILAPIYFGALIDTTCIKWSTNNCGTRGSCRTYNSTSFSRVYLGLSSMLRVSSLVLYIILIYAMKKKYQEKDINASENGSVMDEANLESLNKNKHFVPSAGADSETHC
measurementContext: chinese hamster, cho, 10 µM
residual activity class ranges: LOW = under 70%, MID = from 70% up to 90%, HIGH = 90% and over

> print(dat)
                                   compound  answerlabel
1  NS(=O)(=O)c1cc2c(cc1Cl)N=C(CSCc1ccccc1)NS2(=O)=O [BENZTHIAZIDE]          MID
2  O=C(O)c1cc(O)c2c(c1)C(=O)c1cc(O)cc(O)c1C2=O [EMODIC ACID]         HIGH
3  CC1=NCCc2c1[nH]c1cc(O)ccc21.Cl [HARMALOL HYDROCHLORIDE]          MID
4  CCCCC/C=C\C/C=C\C/C=C\C/C=C\CCCC(=O)O [ARACHIDONIC ACID]          LOW
5  C[C@]12CCC(=O)C(O)=C1CC[C@@H]1[C@@H]2CC[C@]2(C)C(=O)CC[C@@H]12 [FORMESTANE]          MID
6  COc1ccc2[nH]cc(CCN)c2c1 [5-METHOXYTRYPTAMINE]          LOW
7  COc1cc(OC)c2c(=O)c(-c3ccccc3)coc2c1 [5,7-DIMETHOXYISOFLAVONE]         HIGH
8  O=c1c(O)cccc2cc(O)c(O)c(O)c12 [PURPUROGALLIN]          LOW

Entry source: ChEMBL document CHEMBL3039007
